Catalogue of IC50 readings, one per entry.
- test-target: human plasma protein factor Xa (Homo sapiens)
- Construct: measure proteolytic activity of the enzyme (factor Xa); purchased Haematologic Technologies (Essex Junction, Vt.); host or cells: human plasma
- assay-details: Factor Xa IC50 determination: cleavage of paranitroanilide substrate S-2765 in 96-well plates
- Type: biochemical
- condition-description: fXa 1 nM, S-2765 100 μM, Tris buffered saline pH 7.4, room temperature
measurement-label: IC50

> print(dat)
                                   compound  measurement.label  observed.value
1  CCOc1cc(C(=N)N(C)C)ccc1C1=NOC(CNC(=O)c2ccc(Cl)s2)C1 (stereo not shown)               IC50        ≤ 100 nM
2  N=C(c1ccc(-n2cc(CNC(=O)c3ccc(Cl)s3)cn2)cc1)N1CCCC1               IC50        ≤ 100 nM
3  O=C(NCC1CC(c2ccc(Nc3ccnc4ccc(C(F)(F)F)cc34)cc2)=NO1)c1ccc(Cl)s1 (stereo not shown)               IC50        ≤ 100 nM
4  COCCN(C)C(=N)c1ccc(C2=NOC(C)(CNC(=O)c3ccc(Cl)s3)C2)cc1 (stereo not shown)               IC50   100 to 500 nM

----------
- test-target: human plasma protein factor Xa (Homo sapiens, UniProt P00742)
- Construct: measure proteolytic activity of the enzyme (factor Xa); purchased Haematologic Technologies (Essex Junction, Vt.); host or cells: human plasma
- Sequence (P00742 235-488 limits assumed): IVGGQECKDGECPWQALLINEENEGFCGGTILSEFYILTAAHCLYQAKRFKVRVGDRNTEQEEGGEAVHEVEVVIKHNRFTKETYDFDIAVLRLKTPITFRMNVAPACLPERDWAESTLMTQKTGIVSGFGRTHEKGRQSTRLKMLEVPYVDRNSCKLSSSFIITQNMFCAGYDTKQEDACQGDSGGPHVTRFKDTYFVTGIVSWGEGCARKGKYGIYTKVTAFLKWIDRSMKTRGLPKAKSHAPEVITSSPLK
- Sequence (P00742 41-179 partner limits assumed): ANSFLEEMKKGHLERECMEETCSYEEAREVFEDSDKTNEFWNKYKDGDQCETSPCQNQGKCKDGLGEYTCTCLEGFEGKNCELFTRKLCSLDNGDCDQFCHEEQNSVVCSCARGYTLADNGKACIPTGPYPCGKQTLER
- assay-details: Factor Xa IC50 determination: cleavage of paranitroanilide substrate S-2765 in 96-well plates
- Assay type: biochemical
- condition-description: fXa 1 nM, S-2765 100 μM, Tris buffered saline pH 7.4, room temperature
pIC50: −log10 of the molar value.
Catalogue of pIC50 readings, one per entry.
measurement-label: pIC50

> print(dat)
                                    compound  observed.value
 1  N=C(c1ccc(-c2cncc(CNC(=O)c3ccc(Cl)s3)c2)cc1)N1CCCCC1          ≥ 7.00
 2  O=C(NCc1cc(-c2ccc(Nc3ccccn3)cc2)no1)c1ccc(Cl)s1          ≤ 6.30
 3  O=C(NCC1CC(c2ccc(N3CCOCC3)cc2)=NO1)c1ccc(Cl)s1 (centres unmarked)          ≤ 6.30
 4  O=C(NCC1CC(c2ccc(Nc3ccncn3)cc2)=NO1)c1ccc(Cl)s1 (centres unmarked)    6.30 to 7.00
 5  O=C(NCc1cc(-c2ccc(Nc3ccccc3)cc2)no1)c1ccc(Cl)s1          ≤ 6.30
 6  C[C@@H](NC(=O)c1ccc(Cl)s1)c1cc(-c2ccc(C3=NCCN3C)cc2)no1          ≥ 7.00
 7  CCCN(C)C(=N)c1ccc(-n2cc(CNC(=O)c3ccc(Cl)s3)nn2)cc1          ≥ 7.00
 8  CN(C)C(=N)c1ccc(-c2cc(CNC(=O)c3ccc(Cl)s3)on2)c(N(C)C)c1          ≥ 7.00
 9  O=C(NCc1cc(-c2ccc(-c3ccccn3)cc2)no1)c1ccc(Cl)s1          ≤ 6.30
10  CN1CCN=C1c1ccc(C2=NOC(CNC(=O)c3ccc(Cl)s3)C2)c(N(C)C)c1 (centres unmarked)    6.30 to 7.00
11  N=C(c1ccc(-n2cnc(CNC(=O)c3ccc(Cl)s3)c2)cc1)N1CCCCC1          ≥ 7.00
12  CCn1nccc1Nc1ccc(C2=NOC(CNC(=O)c3ccc(Cl)s3)C2)cc1 (centres unmarked)          ≤ 6.30
13  C[C@@H](NC(=O)c1ccc(Cl)s1)c1cc(-c2ccc(C(=N)N(C)C)cc2)no1          ≥ 7.00
14  O=C(NCC1CC(c2ccc(-c3ccccc3C(F)(F)F)cc2)=NO1)c1ccc(Cl)s1 (centres unmarked)    6.30 to 7.00
15  CCN(CC)CCN(C)C(=O)c1ccc(-c2cc(CNC(=O)c3ccc(Cl)s3)on2)cc1          ≤ 6.30
16  CCOc1cc(C(=N)N2CCCCC2)ccc1-c1cc(CNC(=O)c2ccc(Cl)s2)on1          ≥ 7.00
17  CN(C)Cc1ccccc1-c1ccc(C2=NOC(CNC(=O)c3ccc(Cl)s3)C2)cc1 (centres unmarked)          ≥ 7.00

----------
- test-target: human plasma protein factor Xa (Homo sapiens)
- Construct: measure proteolytic activity of the enzyme (factor Xa)
- assay-details: Factor Xa IC50 determination: cleavage of paranitroanilide substrate S-2765 in 96-well plates
- condition-description: fXa 1 nM, S-2765 100 μM, Tris buffered saline pH 7.4, room temperature
Catalogue of IC50 readings, one per entry.
measurement-label: IC50

> print(dat)
                                    compound  observed.value
 1  CC1(CNC(=O)c2ccc(Cl)s2)CC(c2ccccc2)=NO1 (stereo not drawn) [Example 145]        ≥ 0.5 µM
 2  COc1ccc(C2=NOC(C)(CNC(=O)c3ccc(Cl)s3)C2)cc1 (stereo not drawn) [Example 151]        ≥ 0.5 µM
 3  CN1CCC(Nc2ccc(-c3cc(CNC(=O)c4ccc(Cl)s4)on3)cc2)CC1 [Example 259]        ≥ 0.5 µM
 4  CN(Cc1ccco1)C(=N)c1ccc(-c2cc(CNC(=O)c3ccc(Cl)s3)on2)cc1 [Example 31]        ≤ 0.1 µM
 5  CN(C)C(=N)c1ccc(C2=NOC(CNC(=O)c3ccc(Cl)s3)C2)c(N(C)C)c1 (stereo not drawn) [Example 74]   0.1 to 0.5 µM
 6  O=C(NCc1cc(-c2ccc(-c3ccncc3)cc2)no1)c1ccc(Cl)s1 [Example 193]        ≤ 0.1 µM
 7  COc1cc(C(=N)N(C)C)ccc1C1=NOC(CNC(=O)c2ccc(Cl)s2)C1 (stereo not drawn) [Example 102]        ≤ 0.1 µM
 8  O=C(NCC1CC(c2ccc(-n3cccc(Cl)c3=O)cc2)=NO1)c1ccc(Cl)s1 (stereo not drawn) [Example 283]        ≤ 0.1 µM
 9  O=C(NCC1CC(c2ccc(C(=O)N3CC=CC3)cc2)=NO1)c1ccc(Cl)s1 (stereo not drawn) [Example 397]        ≤ 0.1 µM
10  CSc1cc(C(=N)N2CCCC2)ccc1C1=NOC(CNC(=O)c2ccc(Cl)s2)C1 (stereo not drawn) [Example 138]        ≤ 0.1 µM
11  CN(C)C(=N)c1ccc(-n2cnc(CNC(=O)c3ccc(Cl)s3)c2)cc1 [Example 364]        ≤ 0.1 µM
12  CNC(=N)c1ccc(C2=NOC(C)(CNC(=O)c3ccc(Cl)s3)C2)cc1 (stereo not drawn) [Example 69]        ≤ 0.1 µM
13  O=C(NCC1CC(c2ccc(Nc3ccncc3C(F)(F)F)cc2)=NO1)c1ccc(Cl)s1 (stereo not drawn) [Example 403]        ≤ 0.1 µM
14  COCCN(C)C(=N)c1ccc(-c2cc(CNC(=O)c3ccc(Cl)s3)on2)cc1 [Example 32]        ≤ 0.1 µM
15  CC(C)N1CCC(C2=NOC(CNC(=O)c3ccc(Cl)s3)C2)CC1 (stereo not drawn) [Example 171]        ≥ 0.5 µM
16  CN(C)C(=N)c1ccc(C2=NOC(CNC(=O)c3ccc(Cl)s3)C2)c(OC2CCCC2)c1 (stereo not drawn) [Example 112]        ≤ 0.1 µM
17  CN(C)c1cc(C(=N)N2CCCC2)ccc1-c1cc(CNC(=O)c2ccc(Cl)s2)on1 [Example 96]        ≤ 0.1 µM
18  CN1CCN(c2ccc(-n3cc(CNC(=O)c4ccc(Cl)s4)nn3)cn2)CC1 [Example 391]   0.1 to 0.5 µM
19  O=C(NCC1CC(c2ccc(Nc3ccc4ncccc4c3)cc2)=NO1)c1ccc(Cl)s1 (stereo not drawn) [Example 396]        ≥ 0.5 µM
20  O=C(NCc1cc(-c2ccc(-c3ccccc3CN3CCCC3)cc2)no1)c1ccc(Cl)s1 [Example 210]   0.1 to 0.5 µM
21  O=C(NCc1cc(-c2cccc(-c3cccc(CN4CCCC4)c3)c2)no1)c1ccc(Cl)s1 [Example 271]        ≥ 0.5 µM
22  O=C(NCc1cn(-c2ccc(-n3cccc(F)c3=O)cc2)nn1)c1ccc(Cl)s1 [Example 291]        ≤ 0.1 µM
23  N=C(c1ccc(C2=NOC(CNC(=O)c3ccc(Cl)s3)C2)c(N2CCOCC2)c1)N1CCCC1 (stereo not drawn) [Example 84]   0.1 to 0.5 µM
24  CN(Cc1cc(-c2ccc(C3=NCCN3C)cc2)no1)C(=O)c1ccc(Cl)s1 [Example 36]        ≥ 0.5 µM
25  CN(C)C(=N)c1ccc(C2=NOC(CNC(=O)c3ccc(Cl)s3)C2)c(N2CCCCCC2)c1 (stereo not drawn) [Example 90]   0.1 to 0.5 µM
26  N=C(c1ccc(-n2cc(CNC(=O)c3ccc(Cl)s3)nn2)c(F)c1)N1CCC1 [Example 321]        ≤ 0.1 µM
27  N=C(c1ccc(-c2coc(CNC(=O)c3ccc(Cl)s3)n2)cc1)N1CCCC1 [Example 359]   0.1 to 0.5 µM
28  COc1ccc(-c2ccc(-c3cc(CNC(=O)c4ccc(Cl)s4)on3)cc2)c(CN(C)C)c1 [Example 217]        ≤ 0.1 µM
29  N=C(c1ccc(-c2nc(CNC(=O)c3ccc(Cl)s3)co2)cc1)N1CCC(C(N)=O)CC1 [Example 347]   0.1 to 0.5 µM
30  CN1CCC(Nc2ccc(C3=NOC(CNC(=O)c4ccc(Cl)s4)C3)cc2)CC1 (stereo not drawn) [Example 237]   0.1 to 0.5 µM
31  COCCN(C)C(=N)c1ccc(-c2cc(CN(C)C(=O)c3ccc(Cl)s3)on2)cc1 [Example 46]        ≥ 0.5 µM
32  N=C(c1ccc(C2=NOC(CNC(=O)c3ccc(Cl)s3)C2)c(OC2CCCCC2)c1)N1CCCC1 (stereo not drawn) [Example 117]        ≤ 0.1 µM
33  CCOC(=O)C1CCN(C(=N)c2ccc(-c3nc(CNC(=O)c4ccc(Cl)s4)co3)cc2)CC1 [Example 342]   0.1 to 0.5 µM
